# Procedure Details: Human HepG2 cell viability assay in 384 well format
# Assay type: toxicity, cell-based
# Design: dose 125 nL, time 70.5 hour; concentration not given beside the values
# Condition Description: HepG2 cells, read-out: Inhibition
Measured Parameter: cytotoxicity at 70.5 h (%)
All answers are understood in %, so give the number only.

molecule=COCCN(C(=O)c1ccsc1)c1ccc(C#N)cc1 obs_value=-3.69
molecule=COCc1cccc(CNc2cnn(C(C)(C)C)c(=O)c2Cl)c1 obs_value=41
molecule="CN1CC2(CCCN(Cc3nnc(-c4cccc(F)c4)o3)C2)OC1=O (stereo not drawn)" obs_value=-5.83
molecule=O=C(N1CCOCC1)[C@@]12CCO[C@@H]1CCN(C1CCCC1)C2 obs_value=-15.6
molecule=O=C(NCc1cccs1)c1[nH]nc2c1CS(=O)(=O)CC2 obs_value=-0.606
molecule="COc1ccc(C(=O)Nc2n[nH]c(C3CCCO3)n2)cc1 (stereo not drawn)" obs_value=26.5

What does the data say about its cytotoxicity at 70.5 h? Entry: Cc1csc(CN2CCC[C@]3(C[C@H](Oc4ccccn4)CO3)C2)n1
16

Another molecule to look at: CCSc1nc(N)c(NC(=O)c2ccc(OC)c(OC)c2)c(=O)[nH]1
11.2
